tested on: 786-0 complex spheroids with HUVEC/MSC, growth % test/control; assay: Anticancer human tumor 786-0 cell line growth inhibition [AhR]; conditions: second compound 1 µM; first compound 0.000316 µM; hits give low values;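 also: compound exposure lasted seven days before the read-out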
ASSAY METRIC: viability, T/C (%)

compound="Cn1ncnc1C1c2n[nH]c(=O)c3cc(F)cc(c23)NC1c1ccc(F)cc1 (stereo unspecified) + Cc1ccccc1N=Nc1ccc(NC(=O)c2ccnn2C)c(C)c1" unit_annotation=% test_result=101
compound="Cn1ncnc1C1c2n[nH]c(=O)c3cc(F)cc(c23)NC1c1ccc(F)cc1 (stereo unspecified) + CC(CO)NC(=O)c1cc(-c2ccc(Cl)cc2)nn(-c2cnn(C)c2)c1=O" unit_annotation=% test_result=99.3
compound="CC[C@@]1(O)C(=O)OCc2c1cc1n(c2=O)Cc2cc3c(CN(C)C)c(O)ccc3nc2-1 + Cc1cncc(-c2nc(NCCc3c[nH]c4ccccc34)c3ncn(C(C)C)c3n2)c1" unit_annotation=% test_result=109
compound="Cn1ncnc1C1c2n[nH]c(=O)c3cc(F)cc(c23)NC1c1ccc(F)cc1 (stereo unspecified) + Cc1cncc(-c2nc(NCCc3c[nH]c4ccccc34)c3ncn(C(C)C)c3n2)c1" unit_annotation=% test_result=112
compound="CC[C@@]1(O)C(=O)OCc2c1cc1n(c2=O)Cc2cc3c(CN(C)C)c(O)ccc3nc2-1 + Cc1ccccc1N=Nc1ccc(NC(=O)c2ccnn2C)c(C)c1" unit_annotation=% test_result=102
compound="CC[C@@]1(O)C(=O)OCc2c1cc1n(c2=O)Cc2cc3c(CN(C)C)c(O)ccc3nc2-1 + CC(CO)NC(=O)c1cc(-c2ccc(Cl)cc2)nn(-c2cnn(C)c2)c1=O" unit_annotation=% test_result=113
